The entries below pair compounds with Ki values for Alpha-1D adrenergic receptor (Homo sapiens), as found in several publications.
Property: Ki (nM)

1) COCC1=C(C(=O)OC)[C@H](c2ccc(F)c(F)c2)N(C(=O)N[C@H]2CC[C@@H](N3CCC(c4ccccc4C#N)CC3)C2)C(=O)N1 ... 97
2) COc1ccccc1OCCNC[C@@H]1CO[C@@H](c2ccccc2)CO1 (relative stereo) ... 97.7
3) COc1ccc(Cl)cc1N1CCN(CCCNc2c(C(C)=O)c(-c3ccccc3)nn(C)c2=O)CC1 ... 3.92
4) COc1ccccc1N1CCN(CCCNC(=O)CN2CCCCC2=O)CC1 ... 10000
5) c1ccc(OCCNCC2CCC(c3ccccc3)(c3ccccc3)O2)cc1 (centres undefined) ... 31.6
6) COc1ccccc1N1CCN(CCNc2c(C(C)=O)c(-c3ccccc3)nn(C)c2=O)CC1 ... 0.13
7) CS(=O)(=O)c1cc(Cl)cc(Cn2cc(Cl)cc(C(N)=O)c2=N)c1 ... 4.8
8) Cc1ccc(C(C(=O)NCCCN2CCN(c3ccccc3C)CC2)c2ccc(C)cc2)cc1 ... 36
9) N#CC1(c2ccccc2)CCN(CCCNC(=O)C(c2ccccc2)C2CCCCC2)CC1 (racemic) ... 2500
10) COc1ccccc1N1CCN(CC(O)COc2cccc3ccccc23)CC1 (centres undefined) ... 1.2
11) O=C1CC2(CCCC2)CC(=O)N1CCN1CCN(c2cccc(Cl)c2Cl)CC1 ... 12.7
12) CC(C)Oc1ccccc1N1CCN(Cc2ccc(CN3CCCCC3=O)s2)CC1 ... 18
13) CO/C(O)=C1\C(C)=NC(C)=C(C(=O)NCCCN2CCC(c3ccccc3)(c3ccccc3)CC2)C1c1ccc(Cl)c(Cl)c1 (centres undefined) ... 324
14) COc1ccc(C(F)(F)F)cc1S(=O)(=O)N[C@H]1CC[C@H](N2CCN(c3ccccc3OC(C)C)CC2)CC1 ... 15
15) COc1cc2nc(N3CCN(C(=O)CCCCC4CCSS4)CC3)nc(N)c2cc1OC (centres undefined) ... 0.891
16) COc1cccc(-c2ccccc2)c1OCCNC[C@@H]1COc2ccccc2O1 ... 28.8
17) O=S1(=O)CCC(NCCOc2cc(F)ccc2F)c2cc(F)ccc21 (centres undefined) ... 12
18) CC(C)Oc1ccccc1N1CCN(C2CCC(N3C(=O)c4ccc5ccc(F)cc5c4C3=O)CC2)CC1 (stereo in doubt; 6f) ... 16.4
